- TARGET_ENTITY: hOX2R (Homo sapiens, UniProt O43614)
- Construct: expressed in transfected cells; host or cells: CHO cells (G418 selection)
- Sequence (O43614 whole entry): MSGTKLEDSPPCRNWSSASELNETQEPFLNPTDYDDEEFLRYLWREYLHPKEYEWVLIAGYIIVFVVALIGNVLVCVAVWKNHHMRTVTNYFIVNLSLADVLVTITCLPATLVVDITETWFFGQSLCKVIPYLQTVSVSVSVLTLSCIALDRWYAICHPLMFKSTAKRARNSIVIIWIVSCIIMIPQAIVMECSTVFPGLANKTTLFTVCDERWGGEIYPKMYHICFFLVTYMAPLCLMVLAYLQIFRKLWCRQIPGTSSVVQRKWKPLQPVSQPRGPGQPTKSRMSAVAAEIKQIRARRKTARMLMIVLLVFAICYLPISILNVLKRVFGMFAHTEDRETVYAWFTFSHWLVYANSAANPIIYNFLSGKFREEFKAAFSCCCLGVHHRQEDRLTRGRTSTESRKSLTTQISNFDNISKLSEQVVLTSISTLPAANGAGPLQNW
- ASSAY_PROCEDURE: hOX2R IPone assay (orexin receptor agonism)
- Format: cell-based
- RUN_PARAMETERS: orexin receptor agonist, IPone readout; read-out: hOX2R_IPone EC50
pEC50: −log10 of the molar value.
MEASUREMENT_LABEL: pEC50

Consider the following illustrative entries.
{"columns": ["MOLECULE", "pEC50"],
 "data": [
  ["CCN1C(=O)NC(CCC(F)F)CCCCCOc2nc(cn3ccnc23)-c2cc(ncc2C2CC2)[C@H]1C (some centres unmarked)", 8.89],
  ["CCN1C(=O)N[C@@H](CCC(F)(F)F)CCCCCOc2nc(cn3ccnc23)C2=NC=C(O2)C1C (single isomer, unassigned) [Example 104B]", 7.19],
  ["CCN1C(=O)N[C@@H](CCC(F)(F)F)CCCCCOc2nc(cn3ccnc23)-c2cc(c(C)cn2)C1C (single isomer, unassigned) [Example 92B]", 7.62],
  ["CCN1C(=O)N[C@@H](CCC(F)(F)F)CCCCCCc2cc(cn3ccnc23)-c2nc(ccc2OC)[C@H]1C", 8.77],
  ["CCN1C(=O)NC(CCC(C)F)CCCCCOc2nc(cn3ccnc23)-c2cc(ncc2OC)[C@H]1C (single isomer, unassigned) [Example 72B]", 9.15],
  ["CCN1C(=O)NC(CCC(F)(F)F)C(C)CCCOc2nc(cn3ccnc23)-c2cccc(c2)[C@H]1C (single isomer, unassigned) [Example 42D]", 8.44],
  ["CCN1C(=O)NC(CC2CC2(F)F)CCCCCOc2nc(cn3ccnc23)-c2cc(ncc2OC)[C@H]1C (single isomer, unassigned) [Example 59C]", 9.30],
  ["CCN1C(=O)N[C@@H](C(F)(F)F)CCCCOc2nc(cn3ncnc23)-c2cc(ncc2OC)C1C(F)(F)F (some centres unmarked)", 5.52],
  ["CCN1C(=O)NC(CCC(F)F)CCCCCOc2nc(cn3ccnc23)-c2cc(ncc2OC)[C@H]1C(F)(F)F (some centres unmarked)", 9.54],
  ["CCN1C(=O)N[C@@H](CCC(F)(F)F)CCCCCOc2nc(cn3ccnc23)-c2cc(nc3ccoc23)C1C (single isomer, unassigned) [Example 74B]", 9.05]
]}

a: CCN1C(=O)NCC(C(F)(F)F)N(C)CCOc2nc(cn3ccnc23)-c2cccc(c2)[C@H]1C (single isomer, unassigned) [Example 25A]
b: CCN1C(=O)N[C@@H](CCC(C)(F)F)CCCCCOc2nc(c(C)n3ccnc23)-c2cc(ccn2)[C@H]1C
c: CCN1C(=O)N[C@@H](CCC(F)(F)F)CCCCCc2cc(cn3ccnc23)-c2nc(ccc2OC)[C@H]1C
Order field: pEC50 | Direction: descending (largest first) Sort the labels as requested; that list is your answer. b, c, a
(b: 9.11, c: 8.07, a: 6.60)

----------
- TARGET_ENTITY: UniProt O43614
- ASSAY_PROCEDURE: hOX2R IPone assay (orexin receptor agonism)
- RUN_PARAMETERS: orexin receptor agonist, IPone readout; read-out: hOX2R_IPone EC50
MEASUREMENT_LABEL: EC50 (µM)

{"columns": ["COMPOUND", "ENDPOINT_VALUE"],
 "data": [
  ["CCN1C(=O)N[C@@H](CCC(F)(F)F)CCCCCOc2nc(cn3ccnc23)-c2cccc(n2)C1C (some centres unmarked)", 0.101],
  ["CCN1C(=O)NCCCCCCCOc2nc(cn3ccnc23)-c2cc(ncc2OC)[C@H]1C", 0.0625],
  ["CCN1C(=O)N[C@@H](CCC(F)(F)F)CCCCCOc2nc(cn3ccnc23)-c2cc(nnc2OC)[C@H]1C", 0.0016],
  ["CCN1C(=O)N[C@@H](CCC(C)(F)F)CCCCCOc2nc(cn3ccnc23)-c2cc(ncc2OC)[C@H]1C", 0.001],
  ["CCN1C(=O)N[C@@H](CC(F)(F)F)CCCCCOc2nc(nn3ccnc23)-c2ccnc(c2)[C@H]1C", 0.248]
]}

P: CCN1C(=O)N[C@@H](CCC(F)(F)F)CCCCCOc2nc(cn3c(C)cnc23)-c2cc(nc3ccoc23)C1C (single isomer, unassigned) [Example 76B]
Q: CCN1C(=O)NC(C2CCOC2)CCCCCOc2nc(cn3ccnc23)-c2cc(ncc2OC)[C@H]1C (some centres unmarked)
R: CCN1C(=O)NC(CCC(F)(F)F)C(C)CCCOc2nc(cn3ccnc23)-c2cccc(c2)[C@H]1C (single isomer, unassigned) [Example 42A]
S: CCN1C(=O)N[C@@H](CCC(F)(F)F)CCCCCOc2nc(cc3ccnn23)-c2cc(ncc2OC)C1C (single isomer, unassigned) [Example 88A]
Exam item: list the entries in increasing order of EC50. Sort the labels as requested; that list is your answer. Q, P, R, S
(Q: 0.00069 µM, P: 0.0034 µM, R: 0.0066 µM, S: 0.0678 µM)

a: CCN1C(=O)NC(c2nnnn2C)CCCCCOc2nc(cn3ccnc23)-c2cc(ncc2OC)[C@H]1C (some centres unmarked)
b: CCC(CC)CC1CCCCCOc2nc(cn3ccnc23)-c2cc(ncc2OC)[C@@H](C)N(CC)C(=O)N1 (single isomer, unassigned) [Example 64B]
c: CCN1C(=O)N[C@@H](CCC(F)(F)F)CCCCCOc2nc(nn3cc(C)nc23)-c2cc(ncc2OC)[C@H]1C
Order field: EC50 | Direction: descending (largest first) Sort the labels as requested; that list is your answer. c, b, a

----------
- TARGET_ENTITY: hOX2R (Homo sapiens, UniProt O43614)
- ASSAY_PROCEDURE: hOX2R IPone assay (orexin receptor agonism)
- RUN_PARAMETERS: orexin receptor agonist, IPone readout; read-out: hOX2R_IPone EC50
pEC50: −log10 of the molar value.
MEASUREMENT_LABEL: pEC50

{"columns": ["COMPOUND", "pEC50"],
 "data": [
  ["CCN1C(=O)N[C@@H](CCC(F)(F)F)CCCCCOc2nc(cn3ccnc23)-c2cc(ncn2)[C@H]1C [Example 112A]", 8.17]
]}

1: CCN1C(=O)N[C@@H](CCC(C)(F)F)CCCCCOc2nc(cn3ncnc23)-c2cc(cnc2C)[C@H]1C
2: CCN1C(=O)NC(CCC(C)(F)F)CCCCCOc2nc(nn3ccnc23)-c2cc(ncc2OC)[C@H]1C (stereo partly shown)
For the pair 1 and 2 , which entry has the numerically smaller recorded pEC50? Select an item and report its label. 1

a: CCN1C(=O)NC(CC2CC2(F)F)CCCCCOc2nc(cn3ccnc23)-c2cc(ncc2OC)[C@H]1C (single isomer, unassigned) [Example 59D]
b: CCN1C(=O)N[C@@H](CCC(F)(F)F)CCCCOc2nc(cn3ccnc23)-c2cccc(c2)[C@H]1C
For the pair a and b , which entry has the numerically smaller recorded pEC50? Select an item and report its label. b
(b: 8.55, a: 9.05)

1: CCN1C(=O)N[C@@H](CCC(C)(F)F)CCOCCOc2nc(cn3ncnc23)-c2cc(ncc2C)[C@H]1C
2: CCN1C(=O)NC(CC2CCOC2)CCCCCOc2nc(cn3ccnc23)-c2cc(ncc2OC)[C@H]1C (single isomer, unassigned) [Example 67A]
For the pair 1 and 2 , which entry has the numerically smaller recorded pEC50? Select an item and report its label. 2
(2: 8.02, 1: 8.83)

----------
- TARGET_ENTITY: hOX2R (Homo sapiens, UniProt O43614)
- Construct: expressed in transfected cells; host or cells: CHO cells (G418 selection)
- ASSAY_PROCEDURE: hOX2R IPone assay (orexin receptor agonism)
- Assay type: cell-based
- RUN_PARAMETERS: maximal activation, IPone readout
MEASUREMENT_LABEL: hOX2R_Ipone max %act (%)

{"columns": ["COMPOUND", "MEASUREMENT_UNITS", "hOX2R_Ipone max %act"],
 "data": [
  ["CCN1C(=O)N[C@@H](CCC(F)(F)F)CCCCCOc2cc(cc3ccnn23)-c2cc(nnc2OC)[C@H]1C", "%", 101.9],
  ["CCN1C(=O)NC(CCC(F)(F)F)CCC(F)(F)CCOc2nc(cn3ccnc23)-c2cc(ncc2OC)[C@H]1C (single isomer, unassigned) [Example 121A]", "%", 100.4],
  ["CCN1C(=O)N[C@@H](CCC(F)(F)F)CCCCCOc2nc(cn3c(C)cnc23)-c2cc(nc3ccoc23)C1C (single isomer, unassigned) [Example 76B]", "%", 100.4],
  ["CCN1C(=O)N[C@@H](CCC(F)F)CCCCCOc2nc(cn3ncnc23)-c2cc(ncc2Cl)[C@H]1C", "%", 102.9],
  ["CCN1C(=O)N[C@@H](CCC(F)(F)F)CCCCCOc2nc(cn3ccnc23)-c2cc(cnc2OC)[C@H]1C", "%", 102.2],
  ["CCN1C(=O)N[C@@H](CC(F)(F)F)CCCCCOc2nc(cn3ccnc23)-c2cc(ncc2OC)[C@H]1C", "%", 100.9],
  ["CCN1C(=O)N[C@@H](CC(F)(F)F)CCCCCOc2nc(nn3ccnc23)-c2ccnc(c2)[C@H]1C", "%", 97.69],
  ["CCN1C(=O)N[C@@H](CCC(F)(F)F)CCCCCOc2nc(nc3ccnn23)-c2cc(ncc2OC)[C@H]1C", "%", 101.2],
  ["CCN1C(=O)N[C@@H](CCC(F)(F)F)CCCCCOc2nc(cn3ccnc23)-c2nc(ncc2OC)[C@H]1C [Example 117B]", "%", 101.9],
  ["CCN1C(=O)N[C@@H](CCC(F)(F)F)CCCCCOc2cc(cn3ccnc23)-c2nc(ccc2OC)[C@H]1C", "%", 98.7],
  ["CCN1C(=O)NC(CC(O)C(F)(F)F)CCCCCOc2cn3ncnc3c(n2)-c2cc(ncc2OC)C1C (centres unmarked) [Example 131]", "%", 102.2],
  ["CCN1C(=O)N[C@@H](CCC(F)(F)F)CCS(=O)(=O)CCOc2nc(cn3ncnc23)-c2cc(ncc2OC)[C@H]1C", "%", 93.31],
  ["CCN1C(=O)N[C@@H](CCC(C)(F)F)CCCCCOc2nc(cn3ccnc23)-c2cc(ncc2OC)[C@H]1C", "%", 100.7],
  ["CCN1C(=O)N[C@@H](CC(F)(F)F)CCCCCOc2nc(cn3ccnc23)-c2ccnc(c2)[C@H]1C", "%", 100.8]
]}
